- target-system: NS3h_2a(JFH1) (Hepatitis C virus genotype 2a, UniProt Q99IB8)
- Construct: truncated C-terminally His-tagged NS3 proteins lacking the N-terminal protease, called NS3h; His-tag (C); made in house
- Sequence (Q99IB8 1196-1661): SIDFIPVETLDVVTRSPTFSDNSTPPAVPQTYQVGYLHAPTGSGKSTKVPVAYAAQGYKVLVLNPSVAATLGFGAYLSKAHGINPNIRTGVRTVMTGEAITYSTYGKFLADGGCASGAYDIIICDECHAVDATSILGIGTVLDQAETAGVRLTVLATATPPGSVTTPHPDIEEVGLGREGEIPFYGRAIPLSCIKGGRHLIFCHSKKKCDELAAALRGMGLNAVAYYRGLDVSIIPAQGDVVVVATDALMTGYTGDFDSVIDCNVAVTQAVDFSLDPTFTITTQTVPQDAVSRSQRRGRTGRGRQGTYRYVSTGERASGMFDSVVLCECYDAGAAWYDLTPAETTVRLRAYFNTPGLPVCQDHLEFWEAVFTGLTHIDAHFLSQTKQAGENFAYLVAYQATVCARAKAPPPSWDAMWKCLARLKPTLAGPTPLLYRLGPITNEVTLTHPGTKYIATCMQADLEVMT
- experimental-details: MBHA, DNA substrate, genotype 2a helicase
- Type: biochemical, hepatitis C virus genotype 2a(JFH1)
- stated-conditions: DNA-based MBHA, genotype 2a(JFH1); read-out: DNA Helicase NS3h_2a IC50 (μM) ± SD
assay-endpoint: IC50 (µM)
Numbers only, in µM.

Known IC50 results, listed for orientation:
Cc1ccc2nc(-c3ccc4nc(-c5ccc(NC(=O)c6ccc(C(F)(F)F)cc6)cc5)sc4c3)sc2c1S(=O)(=O)O [Compound 12] | 2
Cc1ccc2nc(-c3ccc4nc(-c5ccc(NC(=O)c6ccc7nc(-c8ccc(N)cc8)sc7c6)cc5)sc4c3)sc2c1S(=O)(=O)O [Compound 35] | 3
Cc1ccc2nc(-c3ccc4nc(-c5ccc(NC(=O)c6ccc(Br)cc6)cc5)sc4c3)sc2c1S(=O)(=O)O [Compound 15] | 7
Cc1ccc2nc(-c3ccc4nc(-c5ccc6nc(-c7ccc8nc(-c9ccc(N)cc9)sc8c7)sc6c5)sc4c3)sc2c1S(=O)(=O)O [Compound P4] | 1

Consider the molecule shown here: Cc1ccc2nc(-c3ccc4nc(-c5ccc(NC(=O)c6ccc7ccccc7c6)cc5)sc4c3)sc2c1S(=O)(=O)O [Compound 33] What is its recorded IC50?
2
